Attribution: PubChem BioAssay (NCI)

assay: NCI Yeast Anticancer Drug Screen. Data for the mlh1 rad18 strain (AID 175); details: S. cerevisiae mlh1 rad18 strain growth inhibition; at 50.0 µM; stronger effect = higher value
The panel holds about 79,000 compounds, 15% with a hit somewhere; the sample as a whole holds those more often.
Each entry below lists one item and its recorded growth inhibition value.
assay.endpoint: growth inhibition (%)

compound	assay.endpoint	numeric.readout
CCOP(=O)(OCC)C(O)C(C)C (centres undefined)	growth inhibition	0.35
Brc1ccc(Oc2ccc(Br)cc2Br)c(Br)c1	growth inhibition	32.4
C/C=C/C(C)C1(CCC)C(=O)NC(=O)NC1=O (centres undefined)	growth inhibition	-3.8
COc1ccccc1[As](=O)(O)c1ccccc1	growth inhibition	5.25
CCCCCCCC(=O)[O-].N.N.N.N.N.[Co+3].[O-][Cl+3]([O-])([O-])[O-]	growth inhibition	-13.3
CN1CCCC(C(=O)c2ccccc2)C1 (centres undefined)	growth inhibition	3.75
NC(=O)Cc1ccccc1	growth inhibition	24.9
N#CCC(=O)c1ccccc1	growth inhibition	1.4
CC/C=C/C1(C)C(=O)NC(=S)NC1=O	growth inhibition	-2.95
NC(=O)CCC(NC(=O)Cc1ccccc1)C(=O)O (centres undefined) (tested in a mixture with another compound)	growth inhibition	8.95
COC(=O)c1cncn1C(C)c1cccc2ccccc12 (centres undefined)	growth inhibition	89.3
NC(=O)Oc1cc(OC(N)=O)cc(N(CCCl)CCCl)c1	growth inhibition	40
CCC1(CCNC(=O)CCl)C(=O)NC(=O)NC1=O	growth inhibition	-8.6
CCCCC1(CCO)C(=O)NC(=O)NC1=O	growth inhibition	-20.6
c1ccc(-c2c[se]nn2)cc1	growth inhibition	10.1
O=[N+]([O-])c1ccc(OCCOCCOc2ccc(S(=O)(=O)F)cc2)c(Cl)c1	growth inhibition	56.5
N#CCc1ccccc1.N#CCc1ccccc1.[C-]#[O+].[C-]#[O+].[C-]#[O+].[C-]#[O+].[W]	growth inhibition	-11.3
O=C(c1ccccc1)C1CN(C2CCCC2)C1c1ccccc1 (centres undefined)	growth inhibition	16.1
CCCOP(=O)(CCl)OCCC	growth inhibition	8.25
C/C(CCl)=N\NC1=NC(C)(CCl)P(=O)(NNc2ncccn2)S1 (centres undefined)	growth inhibition	7.35
[O-][Cl+3]([O-])([O-])O.[O-][n+]1c2ccccc2nc2ccccc21.[Zn+2]	growth inhibition	41.5
O=C1OC[C@@H]2Cc3c([nH]c4ccccc34)[C@@H](c3cc(O)c(O)c(O)c3)N12	growth inhibition	-51.6
CC(=O)OC[C@]12CCC(C)=C[C@H]1O[C@@H]1[C@H](O)[C@@H](OC(C)=O)[C@@]2(C)[C@@]12CO2	growth inhibition	-6.7
Cc1ccc2c(c1)Cc1ccccc1-2	growth inhibition	34.9

* * *

test: NCI Yeast Anticancer Drug Screen. Data for the bub3 strain (AID 167); conditions: S. cerevisiae bub3 mutant strain, at 50.0 µM, stronger effect = higher value
About 79,000 compounds went through this panel and 15% of them were active in at least one assay; those are over-represented in the sample as a whole.
Each entry below lists one item and its recorded growth inhibition value.

compound	growth inhibition [%]
[C-]#[O+].[C-]#[O+].[C-]#[O+].[Mo].c1ccc(P(CC[PH+](CC[PH+](CC[PH+](c2ccccc2)c2ccccc2)c2ccccc2)c2ccccc2)c2ccccc2)cc1 (configuration not stated)	32.5
O=C(O)CCC(=O)CCl	0.9
NC(=Nc1ccccc1)Nc1ccccc1 (tested in a mixture with another compound)	6.4
O=c1n(CC2CO2)c2ccccc2n1CC1CS1 (configuration not stated)	-41.4
O=C(O)CCCC(=O)CCCC(=O)O	24.6
CCOP(=O)(OCC)Oc1ccc(S(C)=O)cc1 (configuration not stated)	8.75
O=C(c1ccccc1)c1c(CC(O)c2ccccc2)n(C(=O)c2ccccc2)c2ccccc12 (configuration not stated)	-22.9
NC(=O)CCC(N)C(=O)O.[Cl-].[Cl-].[Cl-].[Cl-].[Pt+2] (configuration not stated)	8.1
COC(=O)CP(=O)(OC)OCC(F)(F)F (configuration not stated)	-33.6
C[C@]12CC[C@H](O)C=C1CC[C@@H]1[C@@H]2CC[C@]2(C)C(c3ccc(=O)oc3)CC[C@]12O (some centres not stated)	0.05
N#CCCc1ccccc1	-1.1
O=C1NCCCC1(Cl)Cl	-10.6
CN1C2CCC1CC(O)(c1ccc(Cl)cc1)C2 (configuration not stated)	30.4
O=P(Oc1ccccc1)(Oc1ccccc1)Oc1c(Cl)c(Cl)c(O)c(Cl)c1Cl	-16.4
CC1(C)C(=O)/C(=N\O)C[C@@]2(C)C1=CC[C@@H]1[C@@H]2CC[C@]2(C)C(=O)/C(=N/O)C[C@@H]12	-1
CCOP(=O)(CC(N)=O)OCC	13.8
CCCCCCP(=O)(CCCCCC)CCCCCC (tested in a mixture with another compound)	62
CC(Br)[N+](=O)[O-] (configuration not stated)	-8.7
[C-]#[O+].[C-]#[O+].[C-]#[O+].[Cr].c1ccc([PH+](CC[As](c2ccccc2)c2ccccc2)CC[As](c2ccccc2)c2ccccc2)cc1	11.1
CP(C)(=S)P(C)(C)=S	3.05
CC1(C)OC2COC(CN=[N+]=[N-])C2O1 (configuration not stated)	3
CCOC(C(=O)O)(c1ccccc1)c1ccccc1	19.5
